- assay.target: cholesterol oxidase I (Brevibacterium sterolicum)
- Construct: host or cells: Brevibacterium sterolicum ATCC 21387 (origin of the enzyme; how it was prepared is not described)
- Sequence (P22637 46-552): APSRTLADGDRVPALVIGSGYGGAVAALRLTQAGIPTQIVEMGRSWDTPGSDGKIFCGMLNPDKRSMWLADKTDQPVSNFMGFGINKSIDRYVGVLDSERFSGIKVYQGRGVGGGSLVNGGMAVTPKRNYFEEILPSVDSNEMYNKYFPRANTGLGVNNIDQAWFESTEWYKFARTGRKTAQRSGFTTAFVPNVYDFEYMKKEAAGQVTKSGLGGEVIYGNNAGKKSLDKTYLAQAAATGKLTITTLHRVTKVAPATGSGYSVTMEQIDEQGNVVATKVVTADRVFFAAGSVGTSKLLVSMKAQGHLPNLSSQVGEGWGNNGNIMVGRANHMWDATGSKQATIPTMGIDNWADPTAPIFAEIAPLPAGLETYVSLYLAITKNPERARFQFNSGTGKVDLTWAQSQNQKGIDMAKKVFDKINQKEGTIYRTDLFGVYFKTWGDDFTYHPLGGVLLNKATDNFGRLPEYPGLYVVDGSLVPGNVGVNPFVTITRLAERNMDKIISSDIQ
- assay.name: Substrate specificity (relative activity on each substrate)
- Type: biochemical, Brevibacterium sterolicum ATCC 21387
- measurement.parameters: activity of cholesterol oxidase I on each substrate; cholesterol = 100
- Experimental: The working pH range was determined by assaying the activity at each pH (phosphate buffer, Tris-HCl buffer, sodium acetate buffer) after the reaction at 37°C for 5 minutes. […] The pH range is determined by treating the enzyme at 50°C for 60 minutes at each pH (phosphate buffer, Tris-HCl buffer, sodium acetate buffer) and then assaying the residual activity. […] The titer is determined as follows. […] Thus, the titer of the enzyme is determined. […]

| compound | Relative Activity (%) |
| --- | --- |
| CC(=O)[C@H]1CC[C@H]2[C@@H]3CC=C4C[C@@H](O)CC[C@]4(C)[C@H]3CC[C@]12C | 22.4 |
| C[C@]12CC[C@@H]3c4ccc(O)cc4CC[C@H]3[C@@H]1CC[C@@H]2O | 0 |
| CC(C)=CCC[C@@H](C)[C@H]1CC[C@@]2(C)C3=C(CC[C@]12C)[C@@]1(C)CC[C@H](O)C(C)(C)[C@@H]1CC3 | 0 |
| C[C@]12CC[C@H](O)CC1=CC[C@@H]1[C@@H]2CC[C@]2(C)C(=O)CC[C@@H]12 [Dehydroisoandrosterone] | 41.4 |
| CC[C@H](/C=C/[C@@H](C)[C@H]1CC[C@H]2[C@@H]3CC=C4C[C@@H](O)CC[C@]4(C)[C@H]3CC[C@]12C)C(C)C | 10.0 |
| CCCCC/C=C\C/C=C\CCCCCCCC(=O)O[C@H]1CC[C@@]2(C)C(=CC[C@H]3[C@@H]4CC[C@H]([C@H](C)CCCC(C)C)[C@@]4(C)CC[C@@H]32)C1 [Cholesterol linoleate] | 0 |
| C[C@]12CC[C@@H](O)C[C@@H]1CC[C@@H]1[C@@H]2CC[C@]2(C)C(=O)CC[C@@H]12 | 0 |

* * *

- Tested on: cholesterol oxidase II
- assay.name: Substrate specificity (relative activity on each substrate)
- Assay type: biochemical, Brevibacterium sterolicum ATCC 21387
- measurement.parameters: whether cholesterol oxidase II acts on the substrate, in words
quantity: Substrate specificity

| compound | readout.value |
| --- | --- |
| CC[C@H](/C=C/[C@@H](C)[C@H]1CC[C@H]2[C@@H]3CC=C4C[C@@H](O)CC[C@]4(C)[C@H]3CC[C@]12C)C(C)C [Stigmasterol] | acts on |
| C=C1CC[C@H](O)C/C1=C/C=C1\CCC[C@]2(C)[C@@H]([C@H](C)CCCC(C)C)CC[C@@H]12 [Vitamin D3] | does not act on |
| CC(=O)[C@H]1CC[C@H]2[C@@H]3CC=C4C[C@@H](O)CC[C@]4(C)[C@H]3CC[C@]12C [Pregnenolone] | acts on |
| CCCCC/C=C\C/C=C\CCCCCCCC(=O)O[C@H]1CC[C@@]2(C)C(=CC[C@H]3[C@@H]4CC[C@H]([C@H](C)CCCC(C)C)[C@@]4(C)CC[C@@H]32)C1 [Cholesterol linoleate] | does not act on |
| CC(C)=CCC[C@@H](C)[C@H]1CC[C@@]2(C)C3=C(CC[C@]12C)[C@@]1(C)CC[C@H](O)C(C)(C)[C@@H]1CC3 [Lanosterol] | does not act on |
| C[C@]12CC[C@H](O)CC1=CC[C@@H]1[C@@H]2CC[C@]2(C)C(=O)CC[C@@H]12 [Dehydroisoandrosterone] | acts on |
| CC[C@H](CC[C@@H](C)[C@H]1CC[C@H]2[C@@H]3CC=C4C[C@@H](O)CC[C@]4(C)[C@H]3CC[C@]12C)C(C)C [β-Sitosterol] | acts on |
| C[C@]12CC[C@@H](O)C[C@@H]1CC[C@@H]1[C@@H]2CC[C@]2(C)C(=O)CC[C@@H]12 [Androsterone] | does not act on |
| CC(C)CCC[C@@H](C)[C@H]1CC[C@H]2[C@@H]3CC=C4C[C@@H](O)CC[C@]4(C)[C@H]3CC[C@]12C [Cholesterol, 5-cholesten-3-β-ol] | acts on |
